B1: CPEB3 Ribozyme (parent)
chain: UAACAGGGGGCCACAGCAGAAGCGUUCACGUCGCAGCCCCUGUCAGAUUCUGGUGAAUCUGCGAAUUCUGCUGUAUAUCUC

Variants of: B1
assayOverview: self-cleavage, relative activity (ratio to wild type); higher = more cleavage; in vitro, sequencing

sequenceChain: UAACAGGGGGCCACAGCAGAAGCGUUCACGUCGCAGCCCCUGUCAGAUUCUGGUGAAUCUGCGAAUUCUGCCGUAGAUCUC
self-cleavage: 1.23

sequenceChain: UAACAGGGGGCCACAGCAGAAGCGUGCACGUCGCAGCCCCUGUCAGAUUCUGGUGAAUCUGCGAAUUUUGCUGUAUAUCUC
self-cleavage: 0.35

sequenceChain: UGACAGGGGGCCACAGCAGAAGCGUUCACGUCGCAGCCCCUGUCAGAUUCUGGUGAAUCUGAGAAUUCUGCUGUAUAUCUC
self-cleavage: 0.15

sequenceChain: UAACAGGGGGCCACAGCAGAAGCGUUCACGUCGCCGCCCCUGUCAGAUUCUGGUGAAUCUGCGAAAUCUGCUGUAUAUCUC
self-cleavage: 0.21

sequenceChain: UAACAGGGGGCCACAGCAGAAGCGUUCACGUCGCAGCCCCUGUCAUAGUCUGGUGAAUCUGCGAAUUCUGCUGUAUAUCUC
self-cleavage: 0.14

sequenceChain: UAACAGGGGGCCACAGCAGAAGCGUUCACGCCGCAGCCCCUGUCAGAUUCUGGUGAAUCUGCGAAUUCUGCUGUAUAGCUC
self-cleavage: 0.84

sequenceChain: UAACAGGGGGCCACAGCAGAAGCGUUCACGUCACAGCCCCUGUCAGAUUUUGGUGAAUCUGCGAAUUCUGCUGUAUAUCUC
self-cleavage: 0.1

sequenceChain: CAACAGGGGGCCACAGCCGAAGCGUUCACGUCGCAGCCCCUGUCAGAUUCUGGUGAAUCUGCGAAUUCUGCUGUAUAUCUC
self-cleavage: 1.09

sequenceChain: UAACAGGGGGCCACAGCUGAAGCGUUCACGUCGCAGCCCCUGUCGGAUUCUGGUGAAUCUGCGAAUUCUGCUGUAUAUCUC
self-cleavage: 0.32

sequenceChain: UAACAGGGGGCCACUGCAGAAGCGUUCACGUCGCAGCCCCUGUCAGAUUCUGGUGAAUCUGCGAAUUCUGCUAUAUAUCUC
self-cleavage: 1.24

sequenceChain: UAACAGGGGGCCACAGCAGAAGCGUUAACGUCGCAGCCCCAGUCAGAUUCUGGUGAAUCUGCGAAUUCUGCUGUAUAUCUC
self-cleavage: 0.07

sequenceChain: UAACAGGGGGCCACAGCAGAAGCGUUCACGUCGCAGCCCCUGUCAGCUUCUGGUGAAUCUGCGAAUUCUGCUGUAUAGCUC
self-cleavage: 0.46

sequenceChain: UAACAGGGGGCCACAGCAGACGCGAUCACGUCGCAGCCCCUGUCAGAUUCUGGUGAAUCUGCGAAUUCUGCUGUAUAUCUC
self-cleavage: 0.28

sequenceChain: UAACAGGGGGCCACAGCAGAAGCGUUCACGUCGCAGCCCCUGUCGAAUUCUGGUGAAUCUGCGAAUUCUGCUGUAUAUCUC
self-cleavage: 0.29

sequenceChain: UAACAGGGGGCCACAGCAGAAGCGUUCACGUCGCAUCCCCUGUCAGAUUCUGGUGAGUCUGCGAAUUCUGCUGUAUAUCUC
self-cleavage: 0.48

sequenceChain: UAACAGGGGGCCACAGCAGAAGCGAUCACGUCGCAGCCCCUGUCAGAUUCUAGUGAAUCUGCGAAUUCUGCUGUAUAUCUC
self-cleavage: 0.22

sequenceChain: UAACAGGGGGUCACAGCAGAAGCGUUCACGUCGCAGCCCCUGUCAGAUUCUGGUGAAUCUGCGAUUUCUGCUGUAUAUCUC
self-cleavage: 0.33

sequenceChain: UAACAGGAGGCCACAGCAGAAGCGUUCACGUCGCAGUCCCUGUCAGAUUCUGGUGAAUCUGCGAAUUCUGCUGUAUAUCUC
self-cleavage: 0.05

sequenceChain: UAACAGGGGGCCACAGCAGAAGCGUUCACGUCGCAGCCCCAGUCAGAUUCUGGUGAAUCUGCGAAUUCUGCUGUAGAUCUC
self-cleavage: 0.22

sequenceChain: UAACAGGGGGCCACAGCAGAAGCGUUCACGUCGCAGCCCCUGUCAGAUUCUGGUGAAUCUGCGAAUACUCCUGUAUAUCUC
self-cleavage: 0.23

sequenceChain: UAACCGGGGGCCACAGCAGAAGCGUUCACGUCGCAGCCCCUGUCAGAUUAUGGUGAAUCUGCGAAUUCUGCUGUAUAUCUC
self-cleavage: 0.8

sequenceChain: UAACAGGGGGCCACAGCAGAAGCGUUCACGUCGCAGCCCCUGUCAGUUUCUGGUGAAUCUGCGGAUUCUGCUGUAUAUCUC
self-cleavage: 0.37
